# target.or.test.system: OR2G2 (Homo sapiens)
# condition.summary: stereoisomer not certain
Choose one outcome from this list and give only that: active, inactive

>  <molecule>
CC(C)(C)C1CCCCC1OCCCCO (stereo not drawn)

>  <answer.label>
inactive

$$$$
>  <molecule>
COC1CC2CC1C1CC(C=O)CC21 (stereo not drawn)

>  <answer.label>
inactive

$$$$

For Cc1occc(=O)c1OC(=O)C(C)C , what call appears in the results of this test?
active

----------
# target.or.test.system: OR2G2 (Homo sapiens) (UniProt Q8NGZ5)
# Sequence (Q8NGZ5 whole entry): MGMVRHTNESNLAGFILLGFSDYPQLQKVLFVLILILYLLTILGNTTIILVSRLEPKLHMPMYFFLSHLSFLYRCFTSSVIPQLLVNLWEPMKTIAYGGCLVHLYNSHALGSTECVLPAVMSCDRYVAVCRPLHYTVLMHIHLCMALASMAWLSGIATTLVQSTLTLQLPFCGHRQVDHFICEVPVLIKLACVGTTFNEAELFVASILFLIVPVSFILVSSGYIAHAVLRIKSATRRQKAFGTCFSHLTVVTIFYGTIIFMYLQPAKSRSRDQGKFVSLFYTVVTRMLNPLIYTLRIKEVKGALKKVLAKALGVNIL
# condition.summary: stereoisomer not certain
Choose one outcome from this list and give only that: t for active, f for inactive

Illustrative cases are given below, each with its answer.
>  <compound>
CCCCCC1C(=O)CCC1CC(=O)OC (stereo unspecified)

>  <target.or.test.system>
OR2G2 (Homo sapiens) (UniProt Q8NGZ5)

>  <answer.label>
f

$$$$
>  <compound>
CC(=O)OCc1ccccc1

>  <target.or.test.system>
OR2G2 (Homo sapiens) (UniProt Q8NGZ5)

>  <answer.label>
f

$$$$
>  <compound>
CCOC(=O)CC1(C)OCCO1

>  <target.or.test.system>
OR2G2 (Homo sapiens) (UniProt Q8NGZ5)

>  <answer.label>
f

$$$$
>  <compound>
CCCCCC1COCCC1OC(C)=O (stereo unspecified)

>  <target.or.test.system>
OR2G2 (Homo sapiens) (UniProt Q8NGZ5)

>  <answer.label>
f

$$$$

For CC1=NC(C)C(C)S1 (stereo unspecified) , what call appears in the results of this test?
f

For CCCCCCCCC(OC(C)=O)OC(C)=O , what call appears in the results of this test?
f

For OCc1ccccc1 , what call appears in the results of this test?
f

For CCC=C(C)C(O)CCCCC (stereo unspecified) , what call appears in the results of this test?
f

For C=CC(C)(O)CCC=C(C)CCC=C(C)C (stereo unspecified) , what call appears in the results of this test?
f
